protocol-summary: yeast display, Sf9 membrane polyspecificity reagent, FACS + sequencing; frameworks hold sequencing errors
measured-property: polyreactivity (PSR sort gate)

QVQLVESGGGLVQEGGSIRLSCAASGRIFYFNTMGWSRQAPGKERELVAAISKNGGSTYYADSVKGRFTISRDNEKNSVYLQMNSLKPEDTAFYLCAKTRRLSPYDYWGLGTQVTVSS high polyreactivity
QVQLVDSGGGLVQAGGSLRLSCAASGSTFGSYAMGWYRQAPGKERELVAAISWNGGRTYYADSVKGRFTISRDNAKNTVYLQMNSLKPEDTAVYYCAKVVKYQSGGGLDYWGQGTQVTVSS high polyreactivity
QVQLVESGGGLFQAGGSLRLSCAASGRIFPYKVMGWYRQAPGKERELVAAISSGGTTDYADSVKGRFTISRDNAKNTVYLQMNSLKPEDTAVYYCASTYVYWTWGYDYWGQGTQVTVSS low polyreactivity
QVQLVESGGGLVQAGGSLRLSCAASGSTFDRYAMGWYRQAPGKEREFVAAITWGGGSTYYADSVKGRFTISRDNAKNTVYLQMNSLKPEDTAVYYCATRYGATFGYWGQGTQVTVSS low polyreactivity
QVQLVESGGGLLKAGGSLRLSCAASGSTFSVYAMGWYRQAPGKEREFVARITWNGGRTYYADSVKGRFTISRDNAKNTVYLQMNSLKPEDTAVYYCAARGPTVTGTGGDYWGQGTQVTVSS high polyreactivity

-- ask Recall and state the measured polyreactivity (PSR sort gate) for "QVQLVESGGGLVQAGGSLRLSCAASGRIFFTNDMGWYRQAPGKERELVATITGNGASTFYADSVKGRFTISRDNAKNTVYLQMNSLKPEDSAVYYCNADRSSYPRYDYWGQGTLVTVSS" .
-- reply low polyreactivity

-- ask For the sequence "QVQLVESGGGLVQAGGSLRLSCAASGRTFRGYAMGWSRQAHGKEREFVATISSRGGSTYYADSVKGSFTISRDNAKHTVYLQMNSLKPEDTAVYYCAAKRRAKTGYRYDYWGQGTQVTLSS" , give its measured polyreactivity (PSR sort gate) value.
-- reply high polyreactivity

-- ask Please supply the value of reported polyreactivity (PSR sort gate) for the item "QVQLVESGGGLVQAGGSLRLSCAASGLTFQLYTMGWYRQAPGKERELVAAISRSGTRTYYADSVKGRFTISRDNAQNTVYLQMNSLKPEDTAVYYCAARTDGYRNNYWGQATQVTVSS"
-- reply high polyreactivity

-- ask Hello, please tell me recorded polyreactivity (PSR sort gate) for this one: "QVQLGESGGGLVQAGGSLRLSCAASGSIIQQYAIGWYRQAPGKERELVAAISWGDGSTYYADSVKGRFTISRDNAKNTVYLQKNSLKPEDTAVYYCNAYASAPLWSLEDDYWGQGTQVTVSS"
-- reply low polyreactivity

* * *

protocol-summary: yeast display, Sf9 membrane polyspecificity reagent, FACS + sequencing; frameworks hold sequencing errors
measured-property: polyreactivity (PSR sort gate)

QVQLVESGGGLVQAGGSLRLSCAASGITFVYYTMGWYRQAPGKERELVAAISSTGGSTYYADSVKGRFTISRDNAKNTVYLQMNSLKPEDTAVYYCAADARTFGGYGYWGQGTQVTVAS high polyreactivity
QVQLVESGGGLVQAGGSLRLSCAASGRTFPYYAMGWYRQAPGKERELVAAITTNDGDTYYADSVKGRFTISRDNAKNTVYLQMNSLKPEDTAVYYCAADSGSTSEYEYWGQGTQVTVSS low polyreactivity
QVQLVESGGGLVQAGGSLRLSCAASGRILKRKAMGLYRQAPGKERELVAAISWSTGTTYYADSVKGRLTISVDNAKNTVYLQMNSLKPEDTAVYYCAKKIVSGRRVDRNDYWGQGTQVTVSS low polyreactivity
QVQLVESGGGLVQAGGSLRLSCAASGRTFFVYDMGWYRQAPGKERELVAAISRGGSTNYADSVKGRFTISRDNAKNTVYLQMNSLKPEDTAVYYCAASVQYRRLKKFYYWGQGTQVTVSS high polyreactivity
QVQLVESGGGLVQAGGSLRLSCAASVRTFKYYAMGWYRQAPGKERELVAAISWSGSSTYYADSVKGRFTISRDNAKNTVDLPMNSLKPEDPAVYYCAAATYRQFTGTYDYWGQGTQVTVSS high polyreactivity

-- ask Supply reported polyreactivity (PSR sort gate) belonging to this sequence: "QVQLVESGGGLVQAGGSLRLSCAASGRTFRKYAMGWYRQAPGTERELVAAISWSGGSTYYANSVKGRFTISRDNAKNTVYLQMNSLKPEDTAVYYGAAVPVHNGSLYWGFTTGYDYWGQGTQVTVSS"
-- reply low polyreactivity

-- ask Supply recorded polyreactivity (PSR sort gate) for "QVQHVESGGGLLQAGGSLRLSCAASGMGWYRQAPGKERELVAVIRWSSGSTYYADSVKGRFTISRDNAKNTVYLQMNSLKPDDTAVYYCNARDQYYGDPSSQPDTRSRSDYWGQGTQVTVSS" here.
-- reply low polyreactivity

-- ask Quickly give me recorded polyreactivity (PSR sort gate) for "QVQLVESGGGLVQAGGTLRLSCAASGRIFQYYDMGWYRQAPGKERELVAAITFSGGSTYYADSVKGRFTISRDNAKNTVYLQMNSLKPEDTAVYYCARGYWVYYPDGDYWGQGTQVTVSS"
-- reply low polyreactivity

-- ask Report polyreactivity (PSR sort gate) for "QVQLVESGGGLVQAGGSLRLSCAASGSIFVPYAMGWYRQAPGKERELVAAISYSGGTTYADSVKGRFTISRDNAKNTVYLQMNRVKPEDTAVYYCAARYWRRWRQSVSLDYWGQGSQVTVSS"
-- reply high polyreactivity

-- ask Give polyreactivity (PSR sort gate) for the following sequence: "QVQLLESGGGLVQAGGSLRLSCAASGFIFSKYAMGWYRQAPGKERELVAGINRSGGSTYYADSVKGRFTISRDNAKNTVYFQMNSLKPEDTAVYYCAAPFGVQSRWYGQSGYWGQGTQVTVSS"
-- reply high polyreactivity

-- ask Consider the sequence "QVQLVESGGGLVQAGGSLRLSCAASGSIFSTYAMGWYRQAPGKERELVAAISSSSGSTYYADSVKGRFTISRDNAKNTVYLQMNSLKPEDTAVYYCAAAYSQYSTSYYYWGQGTQVTVSS" and give its recorded polyreactivity (PSR sort gate).
-- reply high polyreactivity

-- ask Return value of polyreactivity (PSR sort gate) for input "QVQLVESGGGLVQAGGSLRLSCAASGSTFLNYVMGWYRQAPGKERELVATINSGDSTNYADSVKGRFTISRDNAKNTVYLQMNSLKPEDTAVYYCAAEGNYWVDYWGQGTQVTVSS" , no commentary.
-- reply low polyreactivity

Value source: the nanobody polyreactivity screen of Harvey et al. (2022)
